This collection of values is drawn from ChEMBL document CHEMBL1201862.

# Test system: K562
# ASSAY_NAME: NCI tumour cell line growth inhibition, 48 h
The source made the active and inactive calls. No stated cut-off is given here; in the data, active = GI50 up to about 1.1 µM and inactive = higher.
Please go through the items and note down their GI50.

Solved entries (count: 10):
INSERT INTO assay_data (molecule, metric, recorded_value) VALUES
  ('COC(=O)C1=C(O)C(C(=O)OC)[C@]2(O)[C@H](C(=O)OC)[C@H]1C[C@@H](c1ccc([N+](=O)[O-])cc1)[C@H]2C(=O)OC (stereo partly specified)', 'GI50', '10.2 µM (inactive)'),
  ('O=S(=O)(c1ccccc1)n1c(C(O)c2ccncc2)cc2ccccc21 (stereo unspecified)', 'GI50', '31.6 µM (inactive)'),
  ('C1OC1CN1CCN(CC2CO2)CC1 (stereo unspecified)', 'GI50', '52.5 µM (inactive)'),
  ('C#CCNC(=O)NCCCC(NC(C)=O)C(=O)NCc1ccccc1 (stereo unspecified)', 'GI50', '> 100 µM (inactive)'),
  ('O=C(O)c1ccccc1C1CCCc2c1[nH]c1ccccc21 (stereo unspecified)', 'GI50', '34.6 µM (inactive)'),
  ('Cc1cnoc1NS(=O)(=O)c1ccc(Nc2nnc(/C=C/c3c(O)ccc4ccccc34)c(=O)n2N)cc1', 'GI50', '24.2 µM (inactive)'),
  ('C/C(=N\NC(=S)N1CCCCC1)c1cccc(C)n1', 'GI50', '< 0.01 µM (active)'),
  ('CCCC(=O)Nc1ccc(O)c2c1C1CCCCCC21 (stereo unspecified)', 'GI50', '64.9 µM (inactive)'),
  ('N=c1c2ccccc2sc2nc3ccccc3n12', 'GI50', '> 100 µM (inactive)'),
  ('Cc1cn([C@H]2C[C@H](O)[C@@H](CO)O2)c(=O)nc1N', 'GI50', '> 100 µM (inactive)');

Field: next molecule
Quote GI50 reported for `Cc1ccc(C(=O)N/N=C(\N=N\c2ccc(C(=O)O)cc2)c2ccc(N(CCC#N)CCC#N)cc2C)cc1` please. > 100 µM (inactive)
